molecular target: UniProt:Q13370
Sequence (Q13370 whole entry): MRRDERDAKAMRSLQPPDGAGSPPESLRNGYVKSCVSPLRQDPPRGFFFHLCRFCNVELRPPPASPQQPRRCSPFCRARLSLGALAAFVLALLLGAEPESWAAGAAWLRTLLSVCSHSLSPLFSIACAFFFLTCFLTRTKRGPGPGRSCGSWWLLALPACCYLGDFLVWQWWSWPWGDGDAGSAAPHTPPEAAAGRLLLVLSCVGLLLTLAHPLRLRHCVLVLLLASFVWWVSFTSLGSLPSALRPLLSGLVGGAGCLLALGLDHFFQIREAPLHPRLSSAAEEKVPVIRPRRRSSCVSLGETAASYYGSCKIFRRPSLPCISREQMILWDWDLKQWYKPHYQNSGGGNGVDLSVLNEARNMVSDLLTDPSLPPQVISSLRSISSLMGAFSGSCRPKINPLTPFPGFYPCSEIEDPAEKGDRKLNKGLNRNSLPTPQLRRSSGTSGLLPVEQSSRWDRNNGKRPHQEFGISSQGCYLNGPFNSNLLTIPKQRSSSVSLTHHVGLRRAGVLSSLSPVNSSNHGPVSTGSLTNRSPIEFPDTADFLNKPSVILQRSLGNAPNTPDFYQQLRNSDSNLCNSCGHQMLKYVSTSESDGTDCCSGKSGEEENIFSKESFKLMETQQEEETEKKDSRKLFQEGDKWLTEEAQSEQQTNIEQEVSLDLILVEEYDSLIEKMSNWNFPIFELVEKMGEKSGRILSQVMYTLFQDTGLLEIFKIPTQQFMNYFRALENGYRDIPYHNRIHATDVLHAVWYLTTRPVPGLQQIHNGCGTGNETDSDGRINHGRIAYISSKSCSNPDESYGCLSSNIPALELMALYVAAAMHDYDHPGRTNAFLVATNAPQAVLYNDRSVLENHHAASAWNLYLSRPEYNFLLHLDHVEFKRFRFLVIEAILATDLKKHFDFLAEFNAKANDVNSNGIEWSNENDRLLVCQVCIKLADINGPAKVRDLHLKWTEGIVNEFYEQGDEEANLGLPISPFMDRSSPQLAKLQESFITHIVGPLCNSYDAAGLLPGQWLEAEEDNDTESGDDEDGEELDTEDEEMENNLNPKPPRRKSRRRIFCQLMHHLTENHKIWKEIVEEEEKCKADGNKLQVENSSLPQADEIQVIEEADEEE
attribute.measured: pIC50
Reminder that pIC50 means the negative base-10 logarithm of the concentration expressed in mol/L.

Recorded result, COc1nc(C)ccc1-c1ccc(C2=NNC(=O)OC2)cc1C(F)(F)F [Example 53] , pIC50: 6.41

Entry C[C@@H]1OC(=O)NN=C1c1ccc(-c2ccccc2F)c(C(F)(F)F)c1 [Example 179] — recorded pIC50 = 6.96

Record O=C1NN=C(c2cc(F)c(N3CCOCC3)c(C(F)(F)F)c2)CO1 [Example 264] . Reported pIC50: 6.95

Quick note, pIC50 for NC12CC1CN(c1ccc(C3=NNC(=O)OC3)cc1C(F)(F)F)C2 (racemic) [Example 275] landed at 7.19

So, Cn1c(C#N)ccc1-c1ccc(C2=NNC(=O)OC2)cc1C(F)(F)F [Example 50] ? Its pIC50 was 6.68
